- measured on: NAD-dependent protein deacylase sirtuin-5, mitochondrial (Homo sapiens) (UniProt Q9NXA8)
- Sequence (Q9NXA8 whole entry, looked up): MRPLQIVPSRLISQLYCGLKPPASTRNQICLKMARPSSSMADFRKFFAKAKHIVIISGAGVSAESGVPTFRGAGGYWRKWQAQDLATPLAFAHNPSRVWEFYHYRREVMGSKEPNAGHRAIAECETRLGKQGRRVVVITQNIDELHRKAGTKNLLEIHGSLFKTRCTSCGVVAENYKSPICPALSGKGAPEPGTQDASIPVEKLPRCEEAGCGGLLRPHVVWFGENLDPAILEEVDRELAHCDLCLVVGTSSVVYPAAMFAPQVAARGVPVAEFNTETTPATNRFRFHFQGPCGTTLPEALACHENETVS
- experiment: blockers of sirtuin-5 deacylase activity – biochemical, fluorescence imaging, single point, set 5, primary screen (AID 652115)
- assay conditions: Purified SirT5, succinyl-peptide AMC, trypsin-coupled fluorescence; at 15 µM
Screen size: about 330,000 compounds; about 3,800 (1.2%) were called active. No stated cut-off is given here; in the data, active means inhibition above about 15%; inconclusive means no clear call, values can overlap the other calls; inactive means below that. Only a selection was taken, and actives are over-represented in it overall.
Outcomes: yes (1) (active), no (0) (inactive)

                            smiles_structure  category_label
 0  C[C@@H]1CCCCO[C@H](CN(C)S(=O)(=O)c2ccc(F)cc2)[C@H](C)CN([C@@H](C)CO)C(=O)c2cc(NS(=O)(=O)c3ccccc3)ccc2O1          no (0)
 1  Cc1ccc(S(=O)(=O)N(C)C[C@@H]2OCCCC[C@@H](C)Oc3ccc(NS(=O)(=O)c4ccccc4)cc3C(=O)N([C@H](C)CO)C[C@@H]2C)cc1          no (0)
 2  CCC(=O)Nc1ccc2c(c1)C(=O)N(C)C[C@@H](OC)[C@H](C)CN(Cc1cccnc1)[C@@H](C)CO2          no (0)
 3  C[C@@H]1CN([C@@H](C)CO)C(=O)c2cc(C#CC3CCCCC3)cnc2O[C@H]1CN(C)S(=O)(=O)c1ccccc1         yes (1)
 4  Cc1ccc(S(=O)(=O)Nc2ccc3c(c2)C(=O)N([C@H](C)CO)C[C@@H](C)[C@H](CN(C)S(=O)(=O)c2ccc(C)cc2)OCCCC[C@@H](C)O3)cc1         yes (1)
 5  COCC#Cc1cnc2c(c1)C(=O)N([C@H](C)CO)C[C@H](C)[C@H](CN(C)C(=O)C1CCOCC1)O2          no (0)
 6  C[C@H](CO)N1C[C@H](C)[C@@H](CN(C)CC2CCOCC2)Oc2ncc(C#Cc3ccc(F)cc3)cc2C1=O          no (0)
 7  C[C@H](CO)N1C[C@H](C)[C@H](CN(C)CC2CCCCC2)OCCCC[C@H](C)Oc2ccc(NS(=O)(=O)c3ccc(F)cc3)cc2C1=O          no (0)
 8  CCNC(=O)[C@@H]1[C@@H](CO)[C@@H]2Cn3c(ccc(C4=CCCC4)c3=O)[C@H]1N2Cc1ccccc1          no (0)
 9  Cc1ccc(S(=O)(=O)N(C)C[C@@H]2Oc3ccc(N(C)C)cc3C(=O)N([C@@H](C)CO)C[C@H]2C)cc1          no (0)
10  C[C@H](CO)N1C[C@H](C)[C@H](CN(C)Cc2ccc(C(F)(F)F)cc2)Oc2ccc(NS(C)(=O)=O)cc2C1=O         yes (1)
11  CC(C)NC(=O)Nc1ccc2c(c1)C(=O)N([C@H](C)CO)C[C@H](C)[C@@H](CN(C)C)OCCCC[C@H](C)O2          no (0)
12  O=C(c1ccc(F)cc1)N1CC(=O)N2[C@@H](CO)[C@H](c3ccc(C4=CCCC4)cc3)[C@@H]2C1          no (0)
13  C[C@@H]1CN([C@H](C)CO)C(=O)c2cc(C#CC3CCCC3)cnc2O[C@H]1CN(C)S(C)(=O)=O          no (0)
14  Cc1ccc(S(=O)(=O)N(C)C[C@H]2OCCCC[C@@H](C)Oc3ccc(NS(C)(=O)=O)cc3C(=O)N([C@H](C)CO)C[C@@H]2C)cc1          no (0)
15  O=C(Nc1ccc(C(F)(F)F)cc1)N[C@@H]1CC[C@H](CC(=O)N2CCCCC2)O[C@H]1CO          no (0)
16  O=C(N[C@H]1C=C[C@@H](CC(=O)N2CCN(c3ccccc3)CC2)O[C@@H]1CO)c1ccncc1          no (0)
17  Cc1ccc(S(=O)(=O)N(C)C[C@H]2OCCCC[C@@H](C)Oc3ccc(NC(=O)Nc4ccc(F)cc4)cc3C(=O)N([C@@H](C)CO)C[C@H]2C)cc1          no (0)
18  CCC(=O)N1[C@H](C(=O)NC2CCC2)[C@@H](CO)[C@@H]2Cn3c(cccc3=O)[C@@H]21          no (0)
19  O=C(C[C@@H]1CC[C@H](NC(=O)c2ccncc2)[C@@H](CO)O1)Nc1ccc(-c2ccccc2)cc1          no (0)
20  COc1ccc(CN(C)C[C@@H]2OCCCC[C@H](C)Oc3ccc(NS(=O)(=O)c4ccc(F)cc4)cc3C(=O)N([C@H](C)CO)C[C@H]2C)cc1          no (0)
21  COc1ccc(S(=O)(=O)Nc2ccc3c(c2)C(=O)N([C@@H](C)CO)C[C@H](C)[C@H](CN(C)Cc2ccc(C(F)(F)F)cc2)OCCCC[C@@H](C)O3)cc1          no (0)
22  Cc1ccc(S(=O)(=O)Nc2ccc3c(c2)C(=O)N([C@@H](C)CO)C[C@@H](C)[C@H](CN(C)Cc2ccc(Cl)c(Cl)c2)OCCCC[C@@H](C)O3)cc1         yes (1)
23    Cc1cccc(OC(=O)c2sc3ncn(C)c(=O)c3c2C)c1          no (0)
24  C[C@H]1CN([C@@H](C)CO)C(=O)c2cc(C#CC3CCCCC3)cnc2O[C@H]1CN(C)S(=O)(=O)c1ccccc1          no (0)
25  CC(C)NC(=O)N(C)C[C@@H]1Oc2c(NC(=O)c3cnccn3)cccc2C(=O)N([C@@H](C)CO)C[C@@H]1C          no (0)
26  CO[C@H]1CN(C)C(=O)c2ccc(NC(=O)Nc3c(C)noc3C)cc2OC[C@@H](C)NC[C@H]1C          no (0)
27  C[C@H]1CN([C@@H](C)CO)C(=O)c2cc(NS(C)(=O)=O)ccc2O[C@H]1CN(C)C(=O)Nc1ccc(C(F)(F)F)cc1          no (0)
28             COC(OC)c1ccnc(SCc2ccccc2Cl)n1         yes (1)
